Target: T1, Biotin-huCGRPaSA (human, not fully specified; biotin (position not given))
T1 construct: exact construct ('aSA') not explained; also called Biotin CGRPaSA; full-length (1-37) CGRP
T1 peptide: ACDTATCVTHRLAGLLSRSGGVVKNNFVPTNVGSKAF
Assay: ELISA, purified antibody; relative to reference 47-RM-20190815
Method: Streptavidin was diluted to […] by using PBS (Hyclone) and added into a plate at 100 μL/well. The plate was incubated in a thermostat incubator at 37° C. for 90 min and then washed. […] Finally, a 2 M hydrochloric acid solution was added at 100 μL/well to stop the reaction while avoiding bubbles, and the plates were read on a microplate reader within 10 min (the detection wavelength was 450 nm; the reference wavelength was 620 nm). […]
recorded-metric: Relative activity (%)
Answer in %, number only, no unit symbol.

Relative activity (%) for C131 (antibody, V domains shown, 2B8-HC1 + 3E5-LC; chimeric, human constant regions) VH: EVQLQQSGPELVKPGASVKISCKASGYTFTDYNMHWVKQSHGKSLEWIGNIYPYNGGTVYNQKFNNKATLTVHTSSSTAYMDLRSLTSDDSAVYYCAREGLGGYWGQGTTLTVSS VL: DIVLTQSPASLAVSLGQRATISCKASQNIDYDGYTYLNWYQQKPGQPPKVLIYSIFNLESGIPARFSGSGSGTDFTLNIHPVEEEDAATYYCQQSNEVPYTFGGGTKLEIK ? 116

Relative activity (%) for C258 (antibody, V domains shown, 3E5-HC + 1F5-LC1; chimeric, human constant regions) VH: EVQLQQSGPELVKPGASVKISCKTSGYTFTDYNMHWVKQSHGKSLEWIGYISPYNGGTAYNQKFKFKSTLTVDTSSSTAYMELRSLTSEDSAVYYCAREGLGGYWGQGTTLTVSS VL: DIVLTQSPASLAVSLGQRATISCKASQNIDFDGYAYMNWYQHKPGQPPRVLIYSVFNLESGIPARFSGSGSGTDFTLNIHPVEEEDAATYYCQQSHEVPYTFGGGTNLEIK ? 99.8
